The reported measurements were obtained from patent US20190085323A1.

system: T1, HER2-ECD (recombinant extracellular domain of human epidermal growth factor receptor 2) (human, UniProt P04626 23-652)
T1 construct: extracellular domain; Recombinant HER2-ECD coated on ELISA plates
assayExplanation: ELISA, IgG1 titrated on immobilized HER2-ECD
testReadout: EC50 (ng/mL)
Report as a plain number; the unit ng/mL is understood.

29TYL#1 IgG1 (antibody, V domains shown) VH: EVQLVESGGGLVQPGGSLRLSCKASGYTFSTGSMHWVRQAPGKGLEWVAHINPHFGLTLYADSVKGRFTISADTSKNTAYLQMNSLRAEDTAVYYCAGSGFDYWGQGTLVTVSS VL: DIQMTQSPSSLSASVGDRVTITCKSNQNLLLSNGWTFLNWYQQKPGKAPKLLISRISDLYSGVPSRFSGSGSGTDFTLTISSLQPEDFATYYCFQASDFPYTFGQGTKVEIKR
4.1
30CHS-12 IgG1 (antibody, V domains shown) VH: EVQLVESGGGLVQPGGSLRLSCAASGFTISDYWIHWVRQAPGKGLEWVAGINPYYGVTVYADSVKGRFTISADTSKNTAYLQMNSLRAEDTAVYYCARGGVLDYWGQGTLVTVSS VL: DIQMTQSPSSLSASVGDRVTITCKSNQNLLDSGNQGTFLNWYQQKPGKAPKLLIFGTSHLYSGVPSRFSGSGSGTDFTLTISSLQPEDFATYYCSQSTDLPFTFGQGTKVEIKR
41

Now consider a different binder.
EC50 reading for 30CHS-41 IgG1 (antibody, V domains shown) VH: EVQLVESGGGLVQPGGSLRLSCKASGYTFTHWGMHWVRQAPGKGLEWVARINPYYGLTHYADSVKGRFTISADTSKNTAYLQMNSLRAEDTAVYYCARGHWLDYWGQGTLVTVSS VL: DIQMTQSPSSLSASVGDRVTITCKSNQNLLDSGHQRTYLNWYQQKPGKAPKLLIYHTSLLYSGVPSRFSGSGSGTDFTLTISSLQPEDFATYYCSQTFRHPGTFGQGTKVEIKR : 5
